Biological target: human ATGL (Homo sapiens)
Construct: made in house; host or cells: Expi cells (lysate, not purified)
Sequence (Q96AD5 1-504): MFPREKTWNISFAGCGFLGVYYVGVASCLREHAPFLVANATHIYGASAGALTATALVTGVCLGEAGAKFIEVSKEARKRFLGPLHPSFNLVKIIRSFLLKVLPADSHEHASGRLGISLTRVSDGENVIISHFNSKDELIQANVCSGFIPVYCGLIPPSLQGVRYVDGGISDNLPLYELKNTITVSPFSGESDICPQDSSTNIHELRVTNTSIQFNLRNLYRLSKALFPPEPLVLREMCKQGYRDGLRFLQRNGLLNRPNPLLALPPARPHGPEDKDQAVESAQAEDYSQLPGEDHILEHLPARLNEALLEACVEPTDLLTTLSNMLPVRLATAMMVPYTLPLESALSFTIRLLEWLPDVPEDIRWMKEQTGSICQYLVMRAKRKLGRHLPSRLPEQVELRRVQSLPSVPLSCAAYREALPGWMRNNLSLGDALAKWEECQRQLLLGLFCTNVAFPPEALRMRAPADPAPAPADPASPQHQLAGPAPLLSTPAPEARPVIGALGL
Assay: TG hydrolase activity, Expi cell lysates expressing human ATGL + CGI-58, radiolabelled triolein
Type: biochemical
Details: Example 237; read-out: Inhibition of human ATGL − IC50
Readout label: log10 IC50 (log10 of the value in µM)
Friendly reminder: values = log10 of IC50, unit µM.

Reference set, count: 3
1) CC(C)OC(=O)c1cccc(-c2ccc(C(F)(F)F)cc2)n1 = 0.48
2) CC(C)OC(=O)c1cccc(-c2ccc(CCc3ccccc3)cc2)n1 = 0.30
3) CC(C)OC(=O)c1cccc(-c2ccc(-c3nc4ccccc4n3-c3ccccc3)cc2)n1 = 1.00

[ask] Any idea what log10 IC50 was measured for C=CC(C)OC(=O)c1csc(-c2ccc(OCC)cc2)n1 (stereo not shown) ?
[reply] 0.30

[ask] Which log10 IC50 value belongs to CCOC(=O)c1csc(-c2ccc(OCc3ccccc3)cc2)n1 ?
[reply] 1.18

[ask] Consider the compound CC(C)OC(=O)c1cccc(OCCc2ccccc2)n1 and give its measured log10 IC50.
[reply] 1.70

[ask] Endpoint output: log10 IC50 of CCCCCCOc1ccc(-c2nc(C(=O)OCC)cs2)cc1 . Value?
[reply] 1.40
